Kindly supply the reported growth values for the records listed here.
# System: RXF 393 renal
# assay.notes: NCI-60 one-dose screen, 48 h (100 = growth as untreated, 0 = no growth, -100 = all killed)
# condition.label: 10 µM unless noted
# Protocol: Cells are grown in 96 well plates and exposed to the test compound for 48 hours. Compounds are tested at a single concentration, which is 10^-5 M for most compounds. The reported endpoint is percent growth (GI% or GIPRCNT), where numbers from 0 - 100% represent growth inhibition, and numbers from -100% - 0 represent cell death. For example, a value of 40 represents 60% growth inhibition. A value of 0 means no net growth occurred over the course of the experiment. […]
This is part of a sample that, as a whole, favours compounds with a hit. Of some 83,000 tested, about 20% had one in any assay.
Numbers only here, please. The scale is %.

Task item: Please report the measured growth for O=CC(Br)C(Br)c1ccccc1 (configuration not stated)
Reply: 86.8

Task item: Supply recorded growth for NC(=O)NC(=O)CI here.
Reply: 65

Task item: Assign growth to the following record: C/C(=N/OC(=O)N(C)C)c1ccc(Cl)cc1Cl
Reply: 112

Task item: Please give the documented growth of COC(C)(C)CCC[C@H](C)C/C=C/C(C)=C/C(=O)OC(C)C
Reply: 104

Task item: Identify measured growth corresponding to O=C1C=CC(=O)C2C1C1(Cl)C(Cl)=C(Cl)C2(Cl)C1(Cl)Cl (configuration not stated)
Reply: 23.9

Task item: Supply reported growth belonging to this molecule: C[C@]12CC[C@@H]3C4=C(CC[C@H]3[C@@H]1CC[C@@H]2O)CC(=O)CC4
Reply: 100

Task item: Fill in growth for record [N-]=[N+]=NC(C(=O)O)c1ccccc1 (configuration not stated)
Reply: 140

Task item: Please report the measured growth for O=C(CCCN1CCC2(CC1)C(=O)NCN2c1ccc(F)cc1)c1ccc(F)cc1
Reply: 102

Task item: Give the value of growth reported for the following: NC(=O)SCC(=O)Nc1ccc([As](=O)(O)O)cc1
Reply: 95.7

Task item: Hello, please tell me recorded growth for this one: CN1C(=O)NC(=O)C(N=Nc2ccc(Cl)cc2)C1=O (configuration not stated)
Reply: 107

Task item: Specify measured growth for N#CC(C#N)=Cc1ccc2ccccc2c1 .
Reply: 96.5

Task item: Read the entry Cc1cc(N(CCCl)CCCl)ccc1C=Nc1ccc2ccccc2c1 and write its reported growth.
Reply: 71.5

###

# Tested on: HL-60(TB) leukemia
# assay.notes: NCI-60 one-dose screen, 48 h (100 = growth as untreated, 0 = no growth, -100 = all killed)
# condition.label: 10 µM unless noted
# Method: Growth inhibition of the HL-60(TB) human tumor cell line is measured as a screen for anti-cancer activity. Cells are grown in 96 well plates and exposed to the test compound for 48 hours. Compounds are tested at a single concentration, which is 10^-5 M for most compounds. The reported endpoint is percent growth (GI% or GIPRCNT), where numbers from 0 - 100% represent growth inhibition, and numbers from -100% - 0 represent cell death. For example, a value of 40 represents 60% growth inhibition. […]
This is part of a sample that, as a whole, favours compounds with a hit. Of some 83,000 tested, about 20% had one in any assay.
property: growth (%)
Entry rule: numbers only, all in %.

Task item: Identify measured growth obtained with HL-60(TB) leukemia for CCCCN(C=S)CCCC .
Reply: 104

Task item: Recall the reported growth of O=c1oc2ccccc2cc1-c1nn(-c2ccccc2)cc1/C=N/Nc1nc(-c2ccccc2)c(N=Nc2ccccc2)s1 on HL-60(TB) leukemia and write it down.
Reply: 58.1

Task item: Give HL-60(TB) leukemia growth for the following molecule: C/C(O)=C(\C=N\C(N)=S)C(=O)Nc1ccccc1
Reply: 105

Task item: Report value: growth, system: HL-60(TB) leukemia, molecule: O=C(Nc1ccc(-n2cc(-c3ccncc3)c(-c3ccc(O)c(Cl)c3)n2)cc1)Nc1cc(C(F)(F)F)cc(C(F)(F)F)c1
Reply: 43.6

Task item: Please report the measured growth for N#CSCc1cc(Cl)c(CSC#N)cc1Cl tested on HL-60(TB) leukemia.
Reply: 22.1

Task item: Look up and report measured growth (HL-60(TB) leukemia) for the following molecule: COc1cc2cc3cc4cc(OC)c(OC)cc4c(C)[n+]3cc2cc1OC (tested in a mixture with another compound)
Reply: 33

Task item: Specify growth for Cc1ccc(-c2nc(N3CCN(C(=O)c4ccc(OC(F)(F)F)cc4)CC3)c3ccccc3n2)cc1 , system HL-60(TB) leukemia.
Reply: 97.5

Task item: Give reported growth for Cn1cc(-c2csc(-c3cn(CCO)c4ccc(F)cc34)n2)c2cccnc21 (HL-60(TB) leukemia)
Reply: 50.2

Task item: Give growth; test system HL-60(TB) leukemia; molecule COc1ccc(-c2nc(Cl)c3c(C)nn(-c4ccc(F)cc4)c3n2)cc1
Reply: 98.3

Task item: For HL-60(TB) leukemia, give the measured growth of the entry CCOC(=O)[C@@H]1CCCN(S(=O)(=O)c2ccc(S(=O)(=O)N(CC)CC)c(F)c2)C1
Reply: 81.4

Task item: Consider the molecule CNC1=C(Br)C(=O)c2c(C(=O)OC)c(C)nc(C)c2C1=O tested on HL-60(TB) leukemia; state its growth.
Reply: 24.5

Task item: Report value only: growth, HL-60(TB) leukemia, Nc1ccc(Cl)cn1
Reply: 100

Task item: Supply growth measured with HL-60(TB) leukemia for CCOC(=O)c1c(NC(=O)c2ccccc2)sc2c3c(ccc12)OCN(C)C3 .
Reply: -62.5

Task item: # lookup: HL-60(TB) leukemia growth, key = FC(F)(F)c1ccc2c(Nc3cccc(C4CC(c5ccccc5)=NN4c4ccc(Cl)cc4)c3)ccnc2c1 (stereo unspecified)
Reply: 36.5

Task item: Write growth of Oc1ccc(-c2[nH]c3ccccc3c2-c2nc3ccccc3o2)cc1 ; system used: HL-60(TB) leukemia
Reply: 80.8

Task item: State, for HL-60(TB) leukemia, measured growth of the molecule listed here: COc1ccc(/C=C2\Oc3cc(OCCCN4CCCC4)ccc3C2=O)c(OC)c1
Reply: 96.2

Task item: Determine reported growth for OC(c1ccc(Cl)cc1)(c1ccc(Cl)cc1)C(O)(c1ccc(Cl)cc1)c1ccc(Cl)cc1 ; test system: HL-60(TB) leukemia.
Reply: 51.2

Task item: Look up and report growth, with HL-60(TB) leukemia as system, for CC[n+]1ccc2c(c1)C(=O)c1nccc3c1c-2nc1ccccc13
Reply: -31.8

Task item: Please respond with reported growth (system HL-60(TB) leukemia) for CC(=O)c1cc(Br)ccc1O .
Reply: 101

Task item: State growth on HL-60(TB) leukemia. Entry: Cc1cc(NC(=O)/C=C/c2ccc([N+](=O)[O-])cc2)ccc1S(=O)(=O)F
Reply: 98.5

Task item: Print HL-60(TB) leukemia growth for O=C1OCC2=C1C(c1ccc(Cl)c(Cl)c1)c1cc3c(cc1N2CCO)OCCO3 (stereo unspecified) .
Reply: -18.9

###

# Test system: RPMI-8226 leukemia
# assay.notes: NCI-60 one-dose screen, 48 h (100 = growth as untreated, 0 = no growth, -100 = all killed)
# condition.label: 10 µM unless noted
This is part of a sample that, as a whole, favours compounds with a hit. Of some 83,000 tested, about 20% had one in any assay.
For each record, write down the corresponding growth.
Numbers only here, please. The scale is %.

Task item: Specify reported growth for the compound shown: CCOC(=O)/C=C(\C)Nc1ccc(N/C(C)=C/C(=O)OCC)c2c1Oc1ccccc1O2
Reply: 83.2

Task item: State its growth: CC(CC(C#N)(c1ccccc1)c1ccccc1)N1CCOCC1 (stereo unspecified)
Reply: 103

Task item: Read off the recorded growth for CC12CCC(=O)C=C1C(O)CC1C2CCC2(C)C(O)CCC12 (stereo unspecified)
Reply: 108

Task item: Give the value of growth reported for the following: COC(=O)C(=[N+]=[N-])C(=O)OC
Reply: 96.4

Task item: Identify measured growth associated with OC1(c2ccc(Cl)cc2Cl)c2ccccc2C2=NCCN21 (stereo unspecified)
Reply: 82.3

Task item: Complete the entry with growth for C[As](=O)(O)c1ccc(C(=O)O)cc1
Reply: 101

Task item: Report measured growth; entry is S=P(Nc1ccccc1)(Nc1ccccc1)c1ccccc1
Reply: 82.5

Task item: # return recorded growth for entry N#CC1c2ccccc2C=CN1C(=O)c1ccc(N(CCCl)CCCl)cc1 (stereo unspecified)
Reply: 69.2

Task item: For the compound Oc1ccc(Br)cc1CN1CCN(Cc2ccc(Cl)cc2)CC1 , report growth.
Reply: 16.7

Task item: Using known records, supply growth for CN=C(NN)NN
Reply: 91.6

Task item: Specify growth for CC(C)(C)N(Cc1ccccc1)N=O and stop.
Reply: 99.2

###

# System: HCC-2998 colon
# assay.notes: NCI-60 one-dose screen, 48 h (100 = growth as untreated, 0 = no growth, -100 = all killed)
# condition.label: 10 µM unless noted
The panel holds about 83,000 compounds, 20% with a hit somewhere; the sample as a whole holds those more often.
property: growth (%)
Just the number please, in %, no unit attached.

Task item: Using the record for CC1(C)CC2(CC(C)(C)c3cc(O)c(O)cc32)c2cc(O)c(O)cc21 , state its measured growth.
Reply: 102

Task item: Identify the reported growth for the following entry. CCN(CC)CCOc1c(C(C)C)cccc1C(C)C
Reply: 102

Task item: Input COc1cc(C2=NN(c3ccccc3)C(c3sc(N(CCCl)CCCl)nc3Cl)C2)cc(OC)c1OC (configuration not stated) , output reported growth.
Reply: 99.9

Task item: Quickly give me recorded growth for CCCCOC(=O)c1ccccc1C(=O)O.CCCCOC(=O)c1ccccc1C(=O)O.[Cu+2]
Reply: 104

Task item: Quote growth reported for c1ccc([As]=[As]c2ccccc2)cc1 (configuration not stated) please.
Reply: 0.927

Task item: Input CC12CCC(=O)C=C1C(O)CC1C2CCC2(C)C(O)CCC12 (configuration not stated) , output reported growth.
Reply: 101

Task item: Find the measured growth of CNC(=O)Oc1cccc(OC)c1 and report it.
Reply: 105

Task item: Tell me growth reported for O=S(=O)(F)c1ncnc2nc[nH]c12
Reply: 101

Task item: Quick one: give measured growth for CC[C@@H](C)/C=C(C)/C=C/C(=O)c1c(O)c(-c2ccc(O)cc2)cn(O)c1=O
Reply: 36.4

Task item: Specify reported growth for the compound shown: ClCCN(CCCl)c1ccc(C=NCCc2c[nH]c3ccccc23)cc1
Reply: 91.8

Task item: Look up and report measured growth for this entry: CC(N)Cc1ccc(O)cc1 (configuration not stated)
Reply: 111

Task item: Given the compound COc1cc(C2CC(=O)Nc3nc(N)[se]c32)c(OC)c2c1OCO2 (configuration not stated) , write its reported growth.
Reply: 121

Task item: Tell me growth reported for O=S(=O)(Cl)c1ccccc1 (tested in a mixture with another compound)
Reply: 100

Task item: Answer with the recorded growth of CO[C@@H]1[C@H](OC(=O)NC(=O)CCl)CC[C@]2(CO2)[C@H]1[C@@]1(C)O[C@@H]1CC=C(C)C only.
Reply: 80.9

Task item: Find the measured growth of C[CH2][Pb]([CH2]C)([CH2]C)[O]C(=O)COc1ccccc1 and report it.
Reply: -52

Task item: Input Nc1ccc(N)c2c1Oc1ccccc1O2 , output reported growth.
Reply: 108

Task item: Please indicate growth recorded for CC1CC=CCC12C(=O)NC(=S)NC2=O (configuration not stated)
Reply: 116

Task item: Look up and state reported growth for S=P(NC1CCCCC1)(N1CC1)N1CC1
Reply: 131

Task item: Respond only with growth recorded for CNC(=O)Oc1ccccc1
Reply: 119

Task item: Please report the measured growth for O=C(CCCN1CCC2(CC1)C(=O)NCN2c1ccc(F)cc1)c1ccc(F)cc1
Reply: 100

Task item: Quote growth reported for O=C(O)c1cccc(CCl)c1 please.
Reply: 112

Task item: Please look at this compound and report its growth: COc1ccc(/C=C\c2cc(OC)c(OC)c(OC)c2)cc1N/C=C\C(=O)c1c[nH]c2ccccc12
Reply: 21.4

Task item: Report growth, nothing else, for this compound: O=C(NCCNC(=O)c1ccc([As](O)O)cc1)c1ccc([As](O)O)cc1
Reply: 100

Task item: Identify the reported growth for the following entry. CC1COC(=O)C1 (configuration not stated)
Reply: 98.6

Task item: Indicate the recorded growth value for this compound: COc1ccc(-c2ccc(OC)c(OC)c2OC)cc1
Reply: 23.7

Task item: Answer with the recorded growth for the compound listed here: CC(=O)[O][Hg][c]1nc2c(c(=O)n(C)c(=O)n2C)n1C
Reply: 131

Task item: Give the reported value of growth for this record: CNC(=O)Oc1cccc(N(C)C)c1
Reply: 111
